Where do these numbers come from? They come from patent US7135466B2.

# target entity: c-kit (Homo sapiens)
# Construct: MO7e (human megakaryocytic leukemia cell line) which had been arrested for 20 hr; endogenous in cells; host or cells: MO7e human megakaryocytic leukemia cell line
# assay remarks: Inhibitory activity against c-kit autophosphorylation (MO7e cells, h-SCF)
# Type: cell-based
# protocol conditions: MO7e cells, h-SCF 50 ng/ml; read-out: c-kit IC50
measure: pIC50
// field semantics: pIC50 = negative decimal log of concentration (mol/L)

Inquiry: Which pIC50 value is on record for COc1ccc(COC(=O)Nc2ccc(Oc3ccnc4cc(OC)c(OC)cc34)c(C)c2C)cc1OC [Example 63] ?
Reply text: 6.68

Inquiry: Do the same for COc1cc2nccc(Oc3ccc(NC(=O)OC(C)c4ccc(F)cc4)c(C)c3C)c2cc1OC (centres unmarked) [Example 103] please
Reply text: 6.70

Inquiry: Do the same for COc1cc2nccc(Oc3ccc(NC(=O)Oc4c(C)cccc4C)c(C)c3C)c2cc1OC [Example 271] please
Reply text: 6.89

Inquiry: Do the same for COc1cc2nccc(Oc3cc(C)c(NC(=O)Oc4ccc(C(C)(C)C)cc4)cc3C)c2cc1OC [Example 274] please
Reply text: 6.40

###

# target entity: PDGF-Ra (Homo sapiens, UniProt P16234)
# Construct: host or cells: G-292 human osteosarcoma cells
# Sequence (P16234 24-1089): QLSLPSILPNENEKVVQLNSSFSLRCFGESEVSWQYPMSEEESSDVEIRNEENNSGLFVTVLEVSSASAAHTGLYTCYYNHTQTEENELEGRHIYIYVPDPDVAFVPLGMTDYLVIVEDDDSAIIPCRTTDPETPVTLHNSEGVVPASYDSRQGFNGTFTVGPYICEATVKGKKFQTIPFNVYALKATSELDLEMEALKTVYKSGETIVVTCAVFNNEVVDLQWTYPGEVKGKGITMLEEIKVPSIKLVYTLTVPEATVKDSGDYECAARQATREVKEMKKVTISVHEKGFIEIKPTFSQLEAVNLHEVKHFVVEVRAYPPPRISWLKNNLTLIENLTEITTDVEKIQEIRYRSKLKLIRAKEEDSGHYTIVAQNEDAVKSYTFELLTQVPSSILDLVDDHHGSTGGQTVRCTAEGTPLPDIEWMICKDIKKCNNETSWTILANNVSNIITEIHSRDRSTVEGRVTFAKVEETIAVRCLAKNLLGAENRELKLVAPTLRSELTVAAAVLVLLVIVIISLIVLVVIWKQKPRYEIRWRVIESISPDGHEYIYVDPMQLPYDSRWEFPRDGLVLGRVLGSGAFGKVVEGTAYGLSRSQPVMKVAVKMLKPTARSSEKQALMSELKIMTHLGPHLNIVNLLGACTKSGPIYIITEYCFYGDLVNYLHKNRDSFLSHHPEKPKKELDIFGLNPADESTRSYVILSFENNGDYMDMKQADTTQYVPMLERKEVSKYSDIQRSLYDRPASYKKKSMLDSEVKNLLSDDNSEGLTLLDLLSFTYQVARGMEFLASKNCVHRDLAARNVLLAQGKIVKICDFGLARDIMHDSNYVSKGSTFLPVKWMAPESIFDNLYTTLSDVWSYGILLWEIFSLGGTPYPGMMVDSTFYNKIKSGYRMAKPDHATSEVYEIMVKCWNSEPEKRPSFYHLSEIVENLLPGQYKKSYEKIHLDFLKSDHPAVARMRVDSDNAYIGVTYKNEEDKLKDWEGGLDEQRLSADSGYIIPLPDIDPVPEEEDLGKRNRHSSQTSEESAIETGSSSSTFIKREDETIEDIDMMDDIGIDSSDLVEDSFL
# assay remarks: Inhibitory activity against PDGF-Ra phosphorylation by PDGF-AA stimulation using G292
# Type: cell-based
# protocol conditions: > means inhibition at indicated concentration not more than 50%, < and << not less than 50%; read-out: PDGF (E) IC50
Provide the reported IC50 of each item.

Inquiry: Which IC50 value is on record for COc1cc2nccc(Oc3ccc(NC(=O)NC4CCN(Cc5ccccc5)CC4)c(C)c3C)c2cc1OC [Example 635] ?
Reply text: > 0.1 µM

Inquiry: Do the same for COc1cc2nccc(Oc3ccc(NC(=S)NC(=O)C4CCCC4)cc3Cl)c2cc1OC [Example 1182] please
Reply text: < 0.01 µM

Inquiry: Do the same for CCN(CCNC(=O)Nc1ccc(Oc2ncnc3cc(OC)c(OC)cc23)cc1OC)c1cccc(C)c1 [Example 668] please
Reply text: < 0.01 µM

###

Provide the reported IC50 of each item.
# target entity: PDGF-Ra (Homo sapiens)
# Construct: host or cells: G-292 human osteosarcoma cells
# assay remarks: Inhibitory activity against PDGF-Ra phosphorylation by PDGF-AA stimulation using G292
# Assay type: cell-based
# protocol conditions: Pharmacological Test Example 1; > means inhibition at indicated concentration not more than 50%, < and << not less than 50%; read-out: PDGF (E) IC50

Inquiry: Which IC50 value is on record for COc1cc2nccc(Oc3ccc(NC(=O)OCCCOc4ccc(Cl)cc4)cc3)c2cc1OC ?
Reply text: < 10 nM

Inquiry: Do the same for COc1cc2ncnc(Oc3ccc(NC(=O)OCc4ccc(C(F)(F)F)cc4)c(Cl)c3)c2cc1OC please
Reply text: < 10 nM

Inquiry: Do the same for COc1cc2nccc(Oc3cc(C)c(NC(=O)OCCOc4cccc(F)c4)cc3C)c2cc1OC please
Reply text: > 100 nM

Inquiry: Do the same for COc1cc2nccc(Oc3cc(C)c(NC(=O)OCCN4CCCCC4)cc3C)c2cc1OC please
Reply text: 63 nM

Inquiry: Do the same for COc1cc2ncnc(Oc3ccc(NC(=O)OC(C)c4ccccc4Cl)cc3)c2cc1OC (stereo not shown) please
Reply text: 21 nM

Inquiry: Do the same for COc1cccc(OCCCOC(=O)Nc2cc(C)c(Oc3ccnc4cc(OC)c(OC)cc34)cc2C)c1 please
Reply text: < 10 nM

Inquiry: Do the same for COc1ccc(C(C)OC(=O)Nc2ccc(Oc3ccnc4cc(OC)c(OC)cc34)cc2)cc1 (stereo not shown) please
Reply text: 16 nM

Inquiry: Do the same for CCCCCCCCCCCCCCCCCCOC(=O)Nc1cc(C)c(Oc2ccnc3cc(OC)c(OC)cc23)cc1C please
Reply text: > 100 nM

Inquiry: Do the same for COc1cc2ncnc(Oc3ccc(NC(=O)OC(C)c4ccccc4F)cc3)c2cc1OC (stereo not shown) please
Reply text: < 10 nM

Inquiry: Do the same for COc1cc2nccc(Oc3ccc(NC(=O)OC(C)c4cc(F)c(F)cc4F)cc3)c2cc1OC (stereo not shown) please
Reply text: < 10 nM

###

# target entity: c-kit (Homo sapiens)
# Construct: MO7e (human megakaryocytic leukemia cell line) which had been arrested for 20 hr; endogenous in cells; host or cells: MO7e human megakaryocytic leukemia cell line
# assay remarks: Inhibitory activity against c-kit autophosphorylation (MO7e cells, h-SCF)
# Assay type: cell-based
# protocol conditions: MO7e cells, h-SCF stimulation; read-out: c-kit IC50
# Experimental: Inhibitory Activity Against c-kit Autophosphorylation MO7e (human megakaryocytic leukemia cell line) which had been arrested for 20 hr was seeded into 96 well plates at an amount of 2×10^5 per well. A solution of a test compound in DMSO was added, and a reaction was then allowed to proceed for one hr. Thereafter, the cells were stimulated by 50 ng/ml of h-SCF for 5 min, followed by replacement with lysate buffer to solubilize the cells. […]
measure: IC50 (nM)
Could you give me the number in nM? Just the number is fine.

Inquiry: Which IC50 value is on record for COc1cc2nccc(Oc3ccc(NC(=S)NC(=O)N4CCCC4)cc3)c2cc1OC ?
Reply text: 136

Inquiry: Do the same for COc1cc2ncnc(Oc3ccc(OCCCOc4ccccc4OC)cc3)c2cc1OC please
Reply text: 269

Inquiry: Do the same for COc1cc2nccc(Oc3ccc(NC(=S)NC(=O)c4ccccc4)cc3)c2cc1OC please
Reply text: 938

Inquiry: Do the same for COc1cc2nccc(Oc3ccc(NCCOc4c(OC)cccc4OC)cc3)c2cc1OC please
Reply text: 255

Inquiry: Do the same for COc1cc2nccc(Oc3ccc(NC(=S)NC(=O)c4ccc(Cl)c(Cl)c4)cc3)c2cc1OC please
Reply text: 778

Inquiry: Do the same for CCCc1ccc(C(=O)NC(=S)Nc2ccc(Oc3ccnc4cc(OC)c(OC)cc34)c(F)c2)cc1 please
Reply text: 591

Inquiry: Do the same for COc1cc2nccc(Oc3ccc(NC(=S)NC(=O)c4cccc(F)c4)cc3F)c2cc1OC please
Reply text: 335

Inquiry: Do the same for CCOCCC(=O)NC(=S)Nc1ccc(Oc2ccnc3cc(OC)c(OC)cc23)cc1 please
Reply text: 566

Inquiry: Do the same for COc1cc2nccc(Oc3ccc(NC(=S)NC(=O)c4ccc(F)cc4)c(F)c3)c2cc1OC please
Reply text: 233

Inquiry: Do the same for COc1ccc(OCCSc2ccc(Oc3ccnc4cc(OC)c(OC)cc34)cc2)cc1 please
Reply text: 402

Inquiry: Do the same for COc1cc2nccc(Oc3ccc(NC(=S)NC(=O)c4ccco4)cc3)c2cc1OC please
Reply text: 177

Inquiry: Do the same for COc1cc2nccc(Oc3ccc(NC(=S)NC(=O)c4cccc(Br)c4)cc3)c2cc1OC please
Reply text: 166

###

# target entity: c-kit (Homo sapiens, UniProt P10721)
# Construct: MO7e (human megakaryocytic leukemia cell line) which had been arrested for 20 hr; endogenous in cells; host or cells: MO7e human megakaryocytic leukemia cell line
# Sequence (P10721 26-976): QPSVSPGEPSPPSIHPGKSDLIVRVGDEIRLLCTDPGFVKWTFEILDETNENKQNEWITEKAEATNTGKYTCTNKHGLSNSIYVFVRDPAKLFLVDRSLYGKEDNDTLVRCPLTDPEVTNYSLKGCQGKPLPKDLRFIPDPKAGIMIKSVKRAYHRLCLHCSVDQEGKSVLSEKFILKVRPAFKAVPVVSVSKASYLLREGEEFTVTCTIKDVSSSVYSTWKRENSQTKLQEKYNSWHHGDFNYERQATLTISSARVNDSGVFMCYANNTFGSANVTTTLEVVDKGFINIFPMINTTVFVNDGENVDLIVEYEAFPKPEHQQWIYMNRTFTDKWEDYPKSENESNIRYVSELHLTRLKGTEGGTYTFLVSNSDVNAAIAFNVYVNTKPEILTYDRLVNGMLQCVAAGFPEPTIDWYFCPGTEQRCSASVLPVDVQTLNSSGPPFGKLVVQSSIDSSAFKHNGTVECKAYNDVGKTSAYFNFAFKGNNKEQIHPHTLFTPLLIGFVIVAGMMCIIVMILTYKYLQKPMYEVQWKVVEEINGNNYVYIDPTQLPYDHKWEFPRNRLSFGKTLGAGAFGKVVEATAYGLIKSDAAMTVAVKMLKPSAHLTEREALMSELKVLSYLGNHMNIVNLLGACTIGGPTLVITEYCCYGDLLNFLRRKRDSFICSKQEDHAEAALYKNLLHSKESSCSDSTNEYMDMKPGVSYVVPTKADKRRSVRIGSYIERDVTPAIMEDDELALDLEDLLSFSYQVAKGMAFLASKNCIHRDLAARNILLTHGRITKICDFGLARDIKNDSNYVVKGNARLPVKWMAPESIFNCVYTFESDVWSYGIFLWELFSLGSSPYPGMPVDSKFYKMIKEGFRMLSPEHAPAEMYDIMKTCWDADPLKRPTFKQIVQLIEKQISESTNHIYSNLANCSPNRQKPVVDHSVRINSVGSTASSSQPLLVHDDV
# assay remarks: Inhibitory activity against c-kit autophosphorylation (MO7e cells, h-SCF)
# Type: cell-based
# protocol conditions: MO7e cells, h-SCF 50 ng/ml; read-out: c-kit IC50
measure: pIC50
// field semantics: pIC50 = negative decimal log of concentration (mol/L)

Inquiry: Which pIC50 value is on record for COc1cc2nccc(Oc3ccc(NC(=O)OC(C)c4cccc(Cl)c4)c(C)c3C)c2cc1OC (centres unmarked) [Example 4] ?
Reply text: 6.88

Inquiry: Do the same for COc1cc2ncnc(Oc3ccc(NC(=O)OCC4CCCCCC4)cc3)c2cc1OC [Example 351] please
Reply text: 7.19

Inquiry: Do the same for COc1cc2nccc(Oc3ccc(NC(=O)OCc4ccc(C(C)(C)C)cc4)c(C)c3C)c2cc1OC [Example 58] please
Reply text: 6.30

Inquiry: Do the same for COc1cc2nccc(Oc3ccc(NC(=O)OC4CCCCCC4)c(C)c3C)c2cc1OC [Example 288] please
Reply text: 6.79

Inquiry: Do the same for COc1cc2ncnc(Oc3ccc(NC(=O)OCc4ccc(F)cc4)cc3)c2cc1OC [Example 11] please
Reply text: 7.44

Inquiry: Do the same for COc1cc2nccc(Oc3cc(C)c(NC(=O)OCCCOc4ccc(Cl)cc4)cc3C)c2cc1OC [Example 29] please
Reply text: 6.92

Inquiry: Do the same for COc1cccc(OC(=O)Nc2ccc(Oc3ccnc4cc(OC)c(OC)cc34)cc2)c1 [Example 214] please
Reply text: 7.33

Inquiry: Do the same for COc1cc2nccc(Oc3ccc(NC(=O)OCc4ccc(F)cc4)cc3)c2cc1OC [Example 8] please
Reply text: 7.21

###

# target entity: c-kit (Homo sapiens)
# Construct: MO7e (human megakaryocytic leukemia cell line) which had been arrested for 20 hr; endogenous in cells; host or cells: MO7e human megakaryocytic leukemia cell line
# assay remarks: Inhibitory activity against c-kit autophosphorylation (MO7e cells, h-SCF)
# Type: cell-based
# protocol conditions: MO7e cells, h-SCF stimulation; read-out: c-kit IC50
measure: IC50
Answer format: number, then unit.

Inquiry: Which measured IC50 belongs to COc1cc2nccc(Oc3ccc(NC(=S)NC(=O)c4cccc(Cl)c4)c(F)c3)c2cc1OC [Example 938] , tested on c-kit (Homo sapiens)?
Reply text: 0.532 µM

Inquiry: Do the same for COc1cc2nccc(Oc3ccc(NC(=S)NC(=O)N(C)c4ccccc4)cc3)c2cc1OC [Example 1046] please
Reply text: 0.202 µM

Inquiry: Do the same for COc1cc2nccc(Oc3ccc(NC(=S)NC(=O)COCc4ccccc4)cc3F)c2cc1OC [Example 1032] please
Reply text: 0.321 µM

Inquiry: Do the same for COc1cc2nccc(Oc3ccc(NC(=S)NC(=O)CCSC)c(F)c3)c2cc1OC [Example 1067] please
Reply text: 0.449 µM
